- protocolText: Single dose pharmacokinetics, monkey
- Assay type: in vivo
- measurementSetup: plasma; Cynomologus monkey (male), IV 2.5 mg/kg; read-out: T1/2 (IV) (converted)
outcomeMeasure: half-life
Report the figure along with its unit, number first.

Q) Please give measured half-life of the following entry: C[C@@H]1CN2c3c(cc4c(N5C(=O)OC[C@@H]5C)noc4c3F)CC3(C(=O)NC(=O)NC3=O)[C@H]2[C@H](C)O1 [ETX0914]
A) 1.6 h

---

- targetUnderTest: hERG (Homo sapiens, UniProt Q12809)
- Sequence (Q12809 whole entry): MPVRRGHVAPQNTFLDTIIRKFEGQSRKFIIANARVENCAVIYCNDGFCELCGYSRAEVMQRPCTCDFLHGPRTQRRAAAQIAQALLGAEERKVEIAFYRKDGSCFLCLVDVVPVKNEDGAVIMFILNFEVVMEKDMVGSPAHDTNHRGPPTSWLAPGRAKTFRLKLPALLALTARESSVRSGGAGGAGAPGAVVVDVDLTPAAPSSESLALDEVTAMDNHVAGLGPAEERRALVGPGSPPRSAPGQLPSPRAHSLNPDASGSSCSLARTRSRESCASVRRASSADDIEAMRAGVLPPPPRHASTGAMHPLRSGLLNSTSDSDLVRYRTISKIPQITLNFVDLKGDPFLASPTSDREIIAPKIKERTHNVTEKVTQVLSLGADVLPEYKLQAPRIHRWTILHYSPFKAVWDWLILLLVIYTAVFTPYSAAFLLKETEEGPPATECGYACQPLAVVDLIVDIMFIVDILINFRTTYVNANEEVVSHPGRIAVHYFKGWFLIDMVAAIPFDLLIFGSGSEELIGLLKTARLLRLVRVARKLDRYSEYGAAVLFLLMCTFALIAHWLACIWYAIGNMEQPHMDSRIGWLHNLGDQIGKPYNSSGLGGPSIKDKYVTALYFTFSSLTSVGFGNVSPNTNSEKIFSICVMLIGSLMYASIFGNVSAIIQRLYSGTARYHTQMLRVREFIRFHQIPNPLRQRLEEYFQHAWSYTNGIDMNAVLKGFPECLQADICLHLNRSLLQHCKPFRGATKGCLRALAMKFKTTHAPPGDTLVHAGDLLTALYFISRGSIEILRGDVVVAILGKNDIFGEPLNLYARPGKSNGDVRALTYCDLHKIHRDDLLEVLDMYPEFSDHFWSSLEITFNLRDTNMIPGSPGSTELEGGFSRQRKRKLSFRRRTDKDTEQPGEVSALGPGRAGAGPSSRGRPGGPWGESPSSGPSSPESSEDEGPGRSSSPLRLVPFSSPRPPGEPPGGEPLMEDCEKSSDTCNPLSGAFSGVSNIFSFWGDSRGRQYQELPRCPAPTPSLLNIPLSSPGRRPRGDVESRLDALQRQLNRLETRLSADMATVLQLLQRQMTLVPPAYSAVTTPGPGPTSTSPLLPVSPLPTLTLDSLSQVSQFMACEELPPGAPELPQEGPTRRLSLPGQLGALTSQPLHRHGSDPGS
- protocolText: In vitro ion channel function
- measurementSetup: hERG IC50, K^+ rectifying current/QT interval
Parameter: pIC50. Scope: all listed entries.
The scale used: pIC50 is minus the common logarithm of the concentration in molar units.

molecule	pIC50
C[C@@H]1CN2c3c(cc4c(N5C(=O)OC[C@@H]5C)noc4c3F)CC3(C(=O)NC(=O)NC3=O)[C@H]2[C@H](C)O1 [Compound 1]	3.63
C[C@@H]1CN2c3c(cc4c(N5C(=O)OC[C@@H]5C)noc4c3F)CC3(C(=O)NC(=O)NC3=O)[C@H]2[C@H](C)O1 [ETX0914]	3.50
C[C@@H]1CN2c3c(cc4c(-n5cncn5)noc4c3F)CC3(C(=O)NC(=O)NC3=O)[C@H]2[C@H](C)O1	3.63

Q) Please give measured pIC50 of the following entry: C[C@@H]1CN2c3c(cc4c(C(=O)NCC(F)(F)F)noc4c3F)CC3(C(=O)NC(=O)NC3=O)[C@H]2[C@H](C)O1
A) 4.04

---

- protocolText: 28 day oral toxicology study, rat
- Assay type: in vivo, Han Wistar rat
- measurementSetup: both sexes, Han Wistar, blood, oral; rat, 200 mg/kg, day 27; read-out: AUC24h at NOAEL
outcomeMeasure: AUC(0-t) (µg·h/mL)
Numbers only here, please. The scale is µg·h/mL.

Q) Please give measured AUC(0-t) of the following entry: C[C@@H]1CN2c3c(cc4c(N5C(=O)OC[C@@H]5C)noc4c3F)CC3(C(=O)NC(=O)NC3=O)[C@H]2[C@H](C)O1
A) 1070

---

- protocolText: Dog pharmacokinetics
- Format: in vivo, Beagle dog
- measurementSetup: plasma; Beagle dog (male), IV 2.5 mg/kg; read-out: Vss (IV)
outcomeMeasure: Vd (L/kg)
Numbers only here, please. The scale is L/kg.

Q) Please give measured Vd of the following entry: C[C@@H]1CN2c3c(cc4c(N5C(=O)OC[C@@H]5C)noc4c3F)CC3(C(=O)NC(=O)NC3=O)[C@H]2[C@H](C)O1
A) 0.8

---

- targetUnderTest: Ito/Kv4.3 (Homo sapiens)
- Sequence (Q9UK17 whole entry): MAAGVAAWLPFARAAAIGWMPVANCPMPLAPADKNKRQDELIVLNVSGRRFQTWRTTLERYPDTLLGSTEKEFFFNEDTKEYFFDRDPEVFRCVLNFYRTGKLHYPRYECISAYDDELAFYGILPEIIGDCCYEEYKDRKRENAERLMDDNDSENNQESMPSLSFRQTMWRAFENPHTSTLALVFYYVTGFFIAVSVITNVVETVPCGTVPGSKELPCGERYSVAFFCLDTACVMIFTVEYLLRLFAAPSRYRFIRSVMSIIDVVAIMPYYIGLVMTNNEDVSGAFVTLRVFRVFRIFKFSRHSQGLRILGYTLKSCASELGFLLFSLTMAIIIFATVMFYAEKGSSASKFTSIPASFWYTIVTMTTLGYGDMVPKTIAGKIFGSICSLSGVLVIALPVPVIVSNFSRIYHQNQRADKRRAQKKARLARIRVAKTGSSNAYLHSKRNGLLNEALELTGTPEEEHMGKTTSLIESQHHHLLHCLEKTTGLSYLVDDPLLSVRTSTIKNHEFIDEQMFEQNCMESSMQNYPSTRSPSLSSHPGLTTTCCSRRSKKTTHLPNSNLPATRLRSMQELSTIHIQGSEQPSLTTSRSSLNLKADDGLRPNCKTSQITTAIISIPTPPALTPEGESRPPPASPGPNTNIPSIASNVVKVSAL
- protocolText: In vitro ion channel function
- measurementSetup: Ito/Kv4.3 IC50, Transient outward K^+ early repolarization
outcomeMeasure: IC50 (µM)
Numbers only here, please. The scale is µM.

compound	targetUnderTest	outcomeMeasure	result
C[C@@H]1CN2c3c(cc4c(N5C(=O)OC[C@@H]5C)noc4c3F)CC3(C(=O)NC(=O)NC3=O)[C@H]2[C@H](C)O1 [ETX0914]	Ito/Kv4.3 (Homo sapiens)	IC50	216

Q) Please give measured IC50 of the following entry: C[C@@H]1CN2c3c(cc4c(-n5cncn5)noc4c3F)CC3(C(=O)NC(=O)NC3=O)[C@H]2[C@H](C)O1 [Compound 6]
A) 224
